# Tested on: CAKI-1
# assay text: NCI tumour cell line growth inhibition, 48 h
Calls of active or inactive are those of the source. No stated cut-off is given here; in the data, active = GI50 up to about 1.1 µM and inactive = higher.
Outcome field: choose from active, inactive

Reference set, count: 2
compound	target entity	answer label
O=C(O)CCSCc1ccccc1	CAKI-1	inactive
CCOC(=O)c1csc(NC(=O)CCN(CC)CC)n1	CAKI-1	inactive

[in] Can you look up the reported call for "CC(=O)O[C@@H]1O[Si](C(C)(C)C)(C(C)(C)C)[C@H](C)[C@H]1C" for me?
[out] inactive

[in] Can you look up the reported call for "COc1ccc2c(=O)c3ccoc3[nH]c2c1" for me?
[out] inactive

[in] Can you look up the reported call for CC(=O)O[C@H]1C(=O)[C@@]2(C)[C@H]([C@H](OC(=O)c3ccccc3)[C@]3(O)C[C@H](OC(=O)[C@H](O)[C@@H](NC(=O)C(C)(O)C(C)O)c4ccccc4)C(C)=C1C3(C)C)[C@]1(OC(C)=O)CO[C@@H]1C[C@@H]2O (some centres not stated) for me?
[out] inactive
